- test: compound fluorescence in GFP channel, mTEFS cells – imaging, mTEFS fibroblasts, cherry-pick, artefact control for X-chromosome reactivation project, dose response (AID 743396);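 note: raw share of Hoechst-counted cells scored GFP positive without control normalization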
- settings: mTEFS fibroblasts autofluorescence, GFP-channel imaging, 3 days; at 19.5 µM (top of the series); cells pretreated with 5-aza-dC
Overview of reported % fluorescent cells increase across a group of compounds:
test readout: % fluorescent cells increase (%)

| compound | measure unit | obs value |
| --- | --- | --- |
| CCCCOc1nc2ccccc2nc1NS(=O)(=O)c1ccc(F)cc1 | % | 0 |
| Nc1ccccc1Sc1ccc(C(F)(F)F)cc1[N+](=O)[O-] | % | 0 |
| C[C@H](CO)N1C[C@H](C)[C@H](CN(C)S(=O)(=O)c2ccccc2)Oc2ccc(NS(=O)(=O)c3ccc(Cl)cc3)cc2C1=O | % | 0.016 |
| COCCCn1c(C)cc(C(=O)COC(=O)CCc2nc3ccccc3c(=O)[nH]2)c1C | % | 3.52 |
| CCOc1ccc(C(=O)c2cc([N+](=O)[O-])ccc2N2CCOCC2)cc1 | % | 0 |
| Cc1ccccc1NC(=O)CN1C(=O)S/C(=C\c2ccc(-c3cc(C(=O)O)ccc3C)o2)C1=O | % | 0 |
| O=C(Nc1c(Cl)cccc1Cl)Oc1cccc2cccnc12 | % | 6.89 |
| c1ccc(CCNc2nc(-c3ccccn3)nc3ccccc23)cc1 | % | 0 |
| COc1cc(/C=C/c2ccc3cccc(O)c3n2)cc(OC)c1OC | % | 0 |
| O=c1[nH]cnc2c1ncn2[C@H]1CC[C@@H](CO)O1 | % | 0.722 |
| O=C1c2ccccc2C(=Cc2cccnc2)c2ccccc21 | % | 0.125 |
| O=C(NC1=NN(c2ccccc2)CC1)Nc1ccccc1F | % | -0.002 |
| COCCNC(=S)N(Cc1cccnc1)Cc1ccc(OC)c(OC)c1 | % | 1.33 |
| CN(c1ccccc1)S(=O)(=O)c1ccc(C(=O)NCC(c2ccco2)N2CCCCC2)cc1 (stereo unspecified) | % | 6.89 |
| CCOC(=O)c1sc(Nc2ccc(Br)cc2)nc1C | % | 1.37 |
| CC1CCN(C(=O)Cn2nnc(-c3ccccc3)n2)CC1 | % | 0.009 |
| COc1ccc2c3c([nH]c2c1)[C@H](CO)N(C(=O)C1CCCC1)CC31CN(Cc2nccs2)C1 | % | 0.113 |
| O=c1c(Cl)c(Cl)cnn1Cc1nnc(-c2ccccc2Br)o1 | % | -0.006 |
| Clc1ccc(-c2nc(-c3ccncc3)no2)c(Cl)c1 | % | 0 |
| O=C(O)c1ccccc1NS(=O)(=O)c1ccc(N/N=C/c2cccc(O)c2O)c([N+](=O)[O-])c1 | % | 12.8 |
| O=C(Nc1cccc(S(=O)(=O)NC2=NCCC2)c1)C1CC(=O)N(c2ccc3c(c2)OCCO3)C1 (stereo unspecified) | % | -0.007 |

* * *

- test: compound fluorescence in GFP channel, mTEFS cells – imaging, mTEFS fibroblasts, cherry-pick, artefact control for X-chromosome reactivation project, dose response (AID 743396);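 note: raw share of Hoechst-counted cells scored GFP positive without control normalization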
- settings: mTEFS fibroblasts autofluorescence, GFP-channel imaging, 3 days; at 19.5 µM (top of the series); cells pretreated with 5-aza-dC
Overview of reported % fluorescent cells increase across a group of compounds:

| compound | % fluorescent cells increase (%) |
| --- | --- |
| CCOc1ccc(CCN2C(=S)N([C@@H](Cc3ccccc3)CN3CCC[C@@H]3CN3C(=S)NC[C@@H]3CC(C)C)C[C@@H]2Cc2ccccc2)cc1 | 0.019 |
| CC(=O)N(C)C[C@@H]1Oc2ncc(-c3cccnc3)cc2C(=O)N([C@@H](C)CO)C[C@@H]1C | 0.097 |
| CCCC(=O)OCCNc1cc(Sc2nccn2C)c2nonc2c1[N+](=O)[O-] | 0 |
| COc1ccc2nc(SCC(=O)Nc3ccccc3OC)[nH]c2c1 | 0.385 |
| O=C(C[C@@H]1C[C@@H]2c3cc(NC(=O)C4CCC4)ccc3O[C@@H]2[C@@H](CO)O1)NCc1ccc(Cl)cc1 | 0.34 |
| O=C1c2cccc3c([N+](=O)[O-])ccc(c23)C(=O)N1Cc1cccnc1 | 11.8 |
| C=C(C)c1cccc(C(C)(C)NC(=O)Nc2nnc(C(C)C)s2)c1 | 0 |
| O=[N+]([O-])c1c(Nc2ccc(O)cc2)cc(Cl)c2nonc12 | -0.006 |
| COC(=O)C(C(C)C)N1CCc2c(C)nc3c(C#N)cnn3c21 (stereo not drawn) | 0.064 |
| CCC(C(=O)Nc1cc(OC)c(NC(=O)c2ccccc2)cc1OC)c1ccccc1 (stereo not drawn) | 0.022 |
| CC(C)c1ccc(N2C(=O)/C(=C/N(C)C)SC2=S)cc1 | 0.026 |
| CC[C@]12c3[nH]c4cc(CCC(=O)N(C)C)ccc4c3CCN1C(=O)[C@@H](CC(=O)NCCC1=CCCCC1)C[C@@H]2C(=O)N1CCN(C(=O)c2ccco2)CC1 | 0.051 |
| CCCOc1ccc(Oc2nc(-c3ccncc3)nc3ccccc23)cc1 | 0.007 |
| CC1C=NC(S(=O)(=O)N2CC[C@@H]3[C@@H](CO)N(C)c4ccc(-c5ccccc5)cc4[C@@H]32)=N1 (stereo partly drawn) | 0 |
| Cc1ccc(NCc2nnc(SCC(=O)NNC(=O)Cc3ccccc3)n2C)cc1 | 0.009 |
| O=C(c1ccc(Br)cc1)c1cc([N+](=O)[O-])ccc1N1CCOCC1 | 4.03 |
| C[C@@H]1CN([C@@H](C)CO)C(=O)c2ccccc2-c2ccccc2CO[C@@H]1CN(C)C(=O)Nc1ccc2c(c1)OCO2 | -0.044 |
| C(CCCN1CCCCC1)CCN1CCCCC1 | 0.016 |
| COc1ccc(S(=O)(=O)N(C)C[C@H]2OCCCC[C@@H](C)Oc3ccc(NC(=O)NC(C)C)cc3C(=O)N([C@@H](C)CO)C[C@H]2C)cc1 | 0.53 |
| Cc1ccc2[nH]c(C)c(/C=C/c3cc[n+](C)cc3)c2c1 | 8.78 |
| COc1ccc2c3c(n(C)c2c1)[C@H](CO)N(C(=O)CN1CCOCC1)CC31CCN(C(=O)Nc2cccc(F)c2)CC1 | 0 |
| Cc1ccc(S(=O)(=O)c2ccc([N+](=O)[O-])cn2)cc1 | 0 |
| Cc1ccc(S(=O)(=O)N(C)c2ccc(C)c([N+](=O)[O-])c2)cc1 | 0.055 |
| COc1ccccc1N1CCN(C(=O)CN2C(=O)c3cccc4cccc(c34)C2=O)CC1 | 0.023 |
| O=C1C=CC(=O)C(CNc2ccc(C(=O)OCc3ccccc3)cc2)=C1 | 0 |
| CC(C)(C)NC(=O)C(c1c[nH]c2ccccc12)N(C(=O)Cn1nnc(-c2ccc(Cl)cc2)n1)c1ccccc1F (stereo not drawn) | 0.176 |
| C[C@H]1CCCCO[C@H](CN(C)S(=O)(=O)c2ccc(Cl)cc2)[C@@H](C)CN([C@@H](C)CO)C(=O)c2cc(NC(=O)Nc3ccccc3)ccc2O1 | 1.86 |
| COc1ccccc1NC(=S)N(CCCN1CCOCC1)Cc1cccs1 | -0.007 |
| Cc1ccc(N(C)C(=O)C2CCN(S(=O)(=O)c3ccc4c(c3)oc(=O)n4C)CC2)cc1 | -0.007 |
| Cn1c(NC(=O)c2ccc(F)cc2)c(-c2ccccn2)c(=O)c2ccccc21 | 0.007 |
| O=C(Nc1c(F)cccc1F)C(c1ccccc1)c1ccccc1 | 0.034 |
| COc1ccc(OC)c(/C=C/c2ccc3cccc(O)c3n2)c1 | -0.004 |
| COc1ccc(-c2ccc(C3[C@@H]4CN(S(=O)(=O)c5ccccc5C)C[C@H]3N4)cc2)cc1 (stereo partly drawn) | 0 |
| CC(C)(C)C1CCNC(=O)CC1 (stereo not drawn) | -0.007 |
| CCCCNc1nc2c(-c3ccccc3)nnn2c2ccccc12 | 0.006 |
| CNC(=O)C[C@H]1C(=O)N(c2ccccc2)C[C@@H]1C | 0 |
| CCc1ccc(NS(=O)(=O)c2ccc3[nH]cc(C(=O)N4CCc5ccccc54)c(=O)c3c2)cc1 | 0 |
| CC(=O)c1ccc(NS(=O)(=O)c2ccc(N/C=C/C(=O)c3ccc(F)cc3)cc2)cc1 | 0 |
